Origin of the recorded values: paper PMC5770965

Target: KIX domain of CBP (UniProt P45481 586-665)
Sequence (P45481 586-665): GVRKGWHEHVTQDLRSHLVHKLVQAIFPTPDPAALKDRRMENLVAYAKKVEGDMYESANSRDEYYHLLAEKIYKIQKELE
Assay: stopped-flow fluorescence (association kinetics); pseudo-first order conditions with KIX in excess over FITC-pKID; biphasic; kass,fast = gradient of the observed fast rate against KIX concentration
Conditions: both partners purified
Non-standard residues stand in square brackets, D forms with d. No end group written: not given here. *: point of attachment. FITC = O=C1OC2(c3ccc(O)cc3Oc3cc(O)ccc32)c2ccc(NC(=S)*)cc21; pS = N[C@@H](COP(=O)(O)O)C(=O)O
METRIC_NAME: kon (M⁻¹ s⁻¹)
Give just the number in M⁻¹ s⁻¹; leave the unit off.

Answered examples (5):
BINDER: {FITC}-DSVTDSQKRREILSRRP[pS]YRKILNDLASDAP (peptide, UniProt P15337-1 116-146, looked up, source: synthetic peptide, bought: Biomatik) [FITC-pKID S142A]
RECORDED_MEASUREMENT: 1.13e+07
//
BINDER: {FITC}-DSVTDSQKRREILSRRP[pS]YRKALNDLSSDAP (peptide, UniProt P15337-1 116-146, looked up, source: synthetic peptide, bought: Biomatik) [FITC-pKID I137A]
RECORDED_MEASUREMENT: 4.5e+06
//
BINDER: {FITC}-DSVTDSQKRREIASRRP[pS]YRKILNDLSSDAP (peptide, UniProt P15337-1 116-146, looked up, source: synthetic peptide, bought: Biomatik) [FITC-pKID L128A]
RECORDED_MEASUREMENT: 7.9e+06
//
BINDER: {FITC}-DSVTDAQKRREILSRRP[pS]YRKILNDLSSDAP (peptide, UniProt P15337-1 116-146, looked up, source: synthetic peptide, bought: Biomatik) [FITC-pKID S121A]
RECORDED_MEASUREMENT: 6.9e+06
//
BINDER: {FITC}-DSVTDSQKRREILSRRP[pS]YRKILNALSSDAP (peptide, UniProt P15337-1 116-146, looked up, source: synthetic peptide, bought: Biomatik) [FITC-pKID D140A]
RECORDED_MEASUREMENT: 5.3e+06

Prompt: Return the recorded kon value; entry: {FITC}-DSVTDSQKAREILSRRP[pS]YRKILNDLSSDAP (peptide, UniProt P15337-1 116-146, looked up, source: synthetic peptide, bought: Biomatik) [FITC-pKID R124A]
Response: 8.4e+06

Prompt: Return kon (reported value) for this binder: {FITC}-DSVTDSQKRAEILSRRP[pS]YRKILNDLSSDAP (peptide, UniProt P15337-1 116-146, looked up, source: synthetic peptide, bought: Biomatik) [FITC-pKID R125A]
Response: 6.3e+06

Prompt: Read off the recorded kon for {FITC}-DSVTDSQKRREILSRRP[pS]YRKIANDLSSDAP (peptide, UniProt P15337-1 116-146, looked up, source: synthetic peptide, bought: Biomatik) [FITC-pKID L138A]
Response: 2.8e+06

Prompt: Provide measured kon value, entry: {FITC}-DSVTDSQKRREILSRRP[pS]YRKILNDLSSDAP (peptide, UniProt P15337-1 116-146, looked up, also called wtFITCpKID; source: synthetic peptide, bought: Biomatik) [FITC-pKID wild-type (CREB residues 116-146, phosphorylated at Ser133)]
Response: 7.3e+06

Prompt: Indicate the recorded kon value for this binder: {FITC}-DSVTDSQKRREILSRAP[pS]YRKILNDLSSDAP (peptide, UniProt P15337-1 116-146, looked up, source: synthetic peptide, bought: Biomatik) [FITC-pKID R131A]
Response: 9.5e+06

Prompt: Annotate the binder {FITC}-DSVTDSQKRREILSRRPSYRKILNDLSSDAP (peptide, UniProt P15337-1 116-146, looked up, 'pSer to Ser' in the text; also called ∆pS133; pS133S; source: synthetic peptide, bought: Biomatik) [FITC-KID, not phosphorylated at Ser133 (CREB residues 116-146)] with its measured kon.
Response: 7.6e+06
